The reported numbers originate from PubChem BioAssay.

Experiment: binders from COS7 lysate, DM2A8 probe, primary screen, torsin A project, cell lysate, small-molecule microarray, fluorescence 635/667 (AID 1065)
Details: higher = more signal, COS7 lysate expressing mutant human TOR1A
Label class 1 when composite z-score is at or above 0.1; anything below gets class 0.

Worked cases, answers included:
C[N+](C)(C)CCCCNC(=O)[C@@H]1C[C@@H]2C(=O)N[C@@H](Cc3ccccc3)C(=O)N2[C@@H]1c1cccc(OCCO)c1 :: class 0
COCCOC(=O)N1C(=O)[C@@]2(c3cc(C#Cc4ccc(OC)cc4)ccc31)[C@H](c1ccccc1OCCO)N1[C@H](c3ccccc3)[C@H](c3ccccc3)OC(=O)[C@H]1[C@@H]2C(=O)NC[C@H](O)c1ccccc1 :: class 1
CC[C@@H]1C=C(C(=O)O)[C@H](c2ccc(Br)cc2)N1S(=O)(=O)c1ccc(C)cc1 :: class 0

Tell me whether composite z-score is at least 0.1 here: C=CCC(OC(C)=O)[C@@H]1[C@@H](N(Cc2cc3ccccc3o2)C(=O)c2cccc3ccccc23)c2cc(OCCCO)ccc2N1C(=O)c1ccc(-c2ccccc2)cc1 (some centres undefined)
class 0

Tell me whether composite z-score is at least 0.1 here: CC(C)c1ccc(NN2C(C(O)c3ccc(B(O)O)cc3)C=CC3C(=O)N(c4ccccc4)C(=O)C32)cc1 (centres undefined)
class 0

Tell me whether composite z-score is at least 0.1 here: "O=C(CS)NCCCCCCNC(=O)[C@@H]1C[C@@H]2C(=O)N[C@@H](Cc3ccccc3)C(=O)N2[C@@H]1c1cccc(OCCO)c1"
class 1

Tell me whether composite z-score is at least 0.1 here: "CO[C@H]1O[C@H](CO)[C@@H](OC(=O)Nc2ccccc2)[C@H](OC(=O)Nc2ccccc2)[C@@H]1OC(=O)Nc1ccccc1"
class 1

Tell me whether composite z-score is at least 0.1 here: "CC(C)CNC(=O)[C@@]1(Cc2ccccc2I)c2ccccc2C(=O)N(C2CCCCC2)[C@H]1c1ccc(CO)cc1"
class 1

Tell me whether composite z-score is at least 0.1 here: "NCCCCCNC(=O)[C@@H]1C[C@@H]2C(=O)N[C@@H](Cc3ccccc3)C(=O)N2[C@@H]1c1ccc(O)cc1"
class 0

Tell me whether composite z-score is at least 0.1 here: "C=C(CCCC)/C(=C/C[C@H](OC(=O)c1ccncc1)c1ccccc1OCCO)c1cnc2ccccc2c1"
class 1

Tell me whether composite z-score is at least 0.1 here: "CC(C)[Si](C#Cc1ccc(Oc2ccccc2)cc1)(O[Si](C#Cc1ccc(Oc2ccccc2)cc1)(C(C)C)C(C)C)C(C)C"
class 1

Tell me whether composite z-score is at least 0.1 here: "O=C(CS)NCCCCCCNC(=O)[C@@H]1C[C@@H]2C(=O)NCC(=O)N2[C@@H]1c1cccc(OCCO)c1"
class 0

Tell me whether composite z-score is at least 0.1 here: "COc1ccc(CCNC(=O)[C@@]2(Sc3ccc(C)cc3)CC(=O)N(C3Cc4ccccc4C3)[C@@H]2c2ccc(CO)cc2I)cc1"
class 0
